Assay: self-splicing fitness, log relative to wild type (ln ratio); higher = more splicing; Tetrahymena group I intron in knt gene, E. coli kanamycin selection, DiMSum; sequences stand for … in CUCUCU…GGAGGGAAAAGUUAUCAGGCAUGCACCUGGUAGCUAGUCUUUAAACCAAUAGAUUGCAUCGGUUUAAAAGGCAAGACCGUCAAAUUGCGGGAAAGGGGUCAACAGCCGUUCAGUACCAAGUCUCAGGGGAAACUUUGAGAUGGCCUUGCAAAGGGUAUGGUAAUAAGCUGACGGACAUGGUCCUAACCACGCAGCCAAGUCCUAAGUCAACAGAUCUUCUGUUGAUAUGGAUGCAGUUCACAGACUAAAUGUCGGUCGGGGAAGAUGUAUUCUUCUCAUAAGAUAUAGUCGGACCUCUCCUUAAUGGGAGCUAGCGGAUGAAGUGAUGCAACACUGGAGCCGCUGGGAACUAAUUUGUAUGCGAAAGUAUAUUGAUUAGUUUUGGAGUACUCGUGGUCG;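 further: selection with 25 µg/mL kanamycin versus none on LB agar overnight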
Conditions: 30 °C
metric: self-splicing fitness (ln)
Give bare numbers.

These recorded examples may help you get a feel for the data.
- sequenceChain: "AAAGAGCAAUAUUACGUGCU"
  valueObserved: -3.28
- sequenceChain: "CAUGAGCAAUAUUACGAACU"
  valueObserved: -3.53
- sequenceChain: "CCAGAGCAAUAUUACGAGGA"
  valueObserved: -2.96
- sequenceChain: "AAGCAGCAAUAUUACGUCAG"
  valueObserved: -3.06
- sequenceChain: "CAACAGCAAUAUUACGCACC"
  valueObserved: -3.36
- sequenceChain: "ACCGAGCAAUAUUACGCUCG"
  valueObserved: -3.22
- sequenceChain: "CAAUAGCAAUAUUACGGCAC"
  valueObserved: -3.57
- sequenceChain: "ACCGAGCAAUAUUACGGGCA"
  valueObserved: -0.957
- sequenceChain: "UACAAGCAAUAUUACGGCAA"
  valueObserved: -0.904
- sequenceChain: "UUACAGCAAUAUUACGCGCG"
  valueObserved: -0.121

I would be grateful if you could provide self-splicing fitness (ln) for each of the following entries.
1. UGACAGCAAUAUUACGGCGC
2. GGAUAGCAAUAUUACGCGUG

Reply:
-2.47
-1.49
